- SETUP_CONDITIONS: 303.15 K; 101.33 kPa; Liquid
OBSERVABLE: viscosity (mPa·s)

CCCCCCn1cc[n+](CCC#N)c1.O=C([O-])c1cccc(S(=O)(=O)O)c1 [3-(2-cyanoethyl)-1-hexyl-1H-imidazolium 3-sulfobenzoate] :: 7578.3
CCCCCCn1cc[n+](CCC#N)c1.O=S(=O)([O-])c1ccccc1 [3-(2-cyanoethyl)-1-hexyl-1H-imidazolium benzenesulfonate] :: 2865.6
CCCCCCn1cc[n+](CCC#N)c1.O=S(=O)([O-])C(F)(F)F :: 991.9
CCCCCCCCCCCCOS(=O)(=O)[O-].CCCCCCn1cc[n+](CCC#N)c1 [3-(2-cyanoethyl)-1-hexyl-1H-imidazolium dodecyl sulfate] :: 8252.7
CCCCC(CC)COC(=O)CC(C(=O)OCC(CC)CCCC)S(=O)(=O)[O-].CCCCCC[n+]1ccn(CCC#N)c1 (stereo not given) :: 12117

----------
- SETUP_CONDITIONS: 338.15 K; 101.33 kPa; Liquid
OBSERVABLE: viscosity (mPa·s)

CCCCCCCCCCCCOS(=O)(=O)[O-].CCCCCCn1cc[n+](CCC#N)c1 [3-(2-cyanoethyl)-1-hexyl-1H-imidazolium dodecyl sulfate] :: 390.1
CCCCCCn1cc[n+](CCC#N)c1.O=C([O-])c1cccc(S(=O)(=O)O)c1 [3-(2-cyanoethyl)-1-hexyl-1H-imidazolium 3-sulfobenzoate] :: 352.1
CCCCCCn1cc[n+](CCC#N)c1.O=S(=O)([O-])C(F)(F)F :: 77.4
CCCCC(CC)COC(=O)CC(C(=O)OCC(CC)CCCC)S(=O)(=O)[O-].CCCCCC[n+]1ccn(CCC#N)c1 (centres undefined) :: 579.4
